# Target: CYP2D6 (Homo sapiens, UniProt P10635)
# Sequence (P10635 whole entry): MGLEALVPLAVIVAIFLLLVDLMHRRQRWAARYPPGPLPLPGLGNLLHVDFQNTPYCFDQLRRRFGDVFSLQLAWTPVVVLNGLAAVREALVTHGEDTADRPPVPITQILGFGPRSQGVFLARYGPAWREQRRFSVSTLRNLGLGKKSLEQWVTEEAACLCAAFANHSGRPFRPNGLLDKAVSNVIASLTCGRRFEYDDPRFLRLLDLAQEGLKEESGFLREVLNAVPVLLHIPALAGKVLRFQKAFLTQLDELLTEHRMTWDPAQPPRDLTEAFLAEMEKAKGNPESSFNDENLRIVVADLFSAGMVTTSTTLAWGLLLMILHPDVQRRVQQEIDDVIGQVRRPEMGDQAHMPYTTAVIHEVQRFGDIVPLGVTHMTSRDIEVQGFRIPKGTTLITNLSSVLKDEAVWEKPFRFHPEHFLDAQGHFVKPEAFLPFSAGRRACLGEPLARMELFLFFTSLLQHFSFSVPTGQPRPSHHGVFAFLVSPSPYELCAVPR
Attribute measured: Ki (µM)
# output: bare number, implied unit µM

Query string: # returns recorded Ki (system: CYP2D6 (Homo sapiens, UniProt P10635)) for O=C1c2c(O)cc(O)cc2O[C@H](c2cc(O)c(O)c(O)c2)[C@H]1O [DHM, Dihydromyricetin]
Result string: 10.5

###

# Target: CYP3A4 (Homo sapiens, UniProt P08684)
# Construct: CYP3A4 catalyzed reactions (testosterone 6β-hydroxylation) in pooled HLM; from tissue; host or cells: pooled human liver microsomes
# Sequence (P08684 whole entry): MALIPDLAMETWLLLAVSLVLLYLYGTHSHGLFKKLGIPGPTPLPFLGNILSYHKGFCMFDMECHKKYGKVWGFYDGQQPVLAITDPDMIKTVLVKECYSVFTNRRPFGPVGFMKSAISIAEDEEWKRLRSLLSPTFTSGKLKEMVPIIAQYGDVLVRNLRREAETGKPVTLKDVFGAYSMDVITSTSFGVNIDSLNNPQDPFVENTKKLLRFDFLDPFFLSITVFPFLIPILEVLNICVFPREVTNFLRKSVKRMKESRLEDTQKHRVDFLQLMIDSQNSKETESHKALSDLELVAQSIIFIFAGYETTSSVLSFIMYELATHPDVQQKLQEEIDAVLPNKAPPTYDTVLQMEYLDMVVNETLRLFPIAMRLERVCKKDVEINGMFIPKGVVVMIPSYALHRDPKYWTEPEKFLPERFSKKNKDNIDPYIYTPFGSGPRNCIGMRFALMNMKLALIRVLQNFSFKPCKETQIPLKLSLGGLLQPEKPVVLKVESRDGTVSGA
# Assay protocol: Time-dependent inhibition study of CYP3A4 in HLMs
# Format: in vitro ADME
# Settings: human, human liver microsomes; DHM 0–50 μM, preincubation 0–30 min, non-linear regression, HLM
# Description: To determine whether DHM could inhibit the activity of CYP3A4, CYP2E1 and CYP2D6 in a time-dependent manner, DHM (20 μM) was pre-incubated with HLMs (1 mg/mL) in the presence of an NADPH-generating system for 30 min at 37 °C. […] After being incubated for 10 and 30 min, the reactions were terminated by adding a 100 μL acetonitrile internal standard mix and then placed on ice; the corresponding metabolites was determined by HPLC. […]
Attribute measured: KI (inactivation) (µM)
# output: bare number, implied unit µM

Query string: # returns recorded KI (inactivation) (system: CYP3A4 (Homo sapiens, UniProt P08684)) for O=C1c2c(O)cc(O)cc2O[C@H](c2cc(O)c(O)c(O)c2)[C@H]1O [DHM, Dihydromyricetin]
Result string: 12.2

###

# Target: CYP3A4 (Homo sapiens, UniProt P08684)
# Construct: CYP3A4 catalyzed reactions (testosterone 6β-hydroxylation) in pooled HLM; from tissue; host or cells: pooled human liver microsomes
# Assay protocol: CYP3A4 inhibition, testosterone 6β-hydroxylation in pooled HLMs
# Format: in vitro ADME
# Settings: human, pooled human liver microsomes, pH 7.4, probe testosterone (6β-hydroxylation); DHM 100 μM, pooled HLMs; read-out: CYP3A4 activity inhibited to % of control activity
Attribute measured: inhibition at 100 μM (%)
# output: bare number, implied unit %

Query string: Requested field: inhibition at 100 μM. Item: O=C1c2c(O)cc(O)cc2O[C@H](c2cc(O)c(O)c(O)c2)[C@H]1O [DHM, Dihydromyricetin]
Result string: 87.7

###

# Target: CYP3A4 (Homo sapiens)
# Construct: CYP3A4 catalyzed reactions (testosterone 6β-hydroxylation) in pooled HLM; from tissue; host or cells: pooled human liver microsomes
# Assay protocol: Time-dependent inhibition study of CYP3A4 in HLMs
# Format: in vitro ADME
# Settings: human, human liver microsomes; DHM 0–50 μM, preincubation 0–30 min, non-linear regression, HLM; read-out: Kinact for inactivation of CYP3A4 (converted)
Attribute measured: kinact (s⁻¹)
# output: bare number, implied unit s⁻¹

Query string: Requested field: kinact. Item: O=C1c2c(O)cc(O)cc2O[C@H](c2cc(O)c(O)c(O)c2)[C@H]1O [DHM, Dihydromyricetin]
Result string: 0.00095

###

# Target: CYP2E1 (Homo sapiens)
# Sequence (P05181 whole entry): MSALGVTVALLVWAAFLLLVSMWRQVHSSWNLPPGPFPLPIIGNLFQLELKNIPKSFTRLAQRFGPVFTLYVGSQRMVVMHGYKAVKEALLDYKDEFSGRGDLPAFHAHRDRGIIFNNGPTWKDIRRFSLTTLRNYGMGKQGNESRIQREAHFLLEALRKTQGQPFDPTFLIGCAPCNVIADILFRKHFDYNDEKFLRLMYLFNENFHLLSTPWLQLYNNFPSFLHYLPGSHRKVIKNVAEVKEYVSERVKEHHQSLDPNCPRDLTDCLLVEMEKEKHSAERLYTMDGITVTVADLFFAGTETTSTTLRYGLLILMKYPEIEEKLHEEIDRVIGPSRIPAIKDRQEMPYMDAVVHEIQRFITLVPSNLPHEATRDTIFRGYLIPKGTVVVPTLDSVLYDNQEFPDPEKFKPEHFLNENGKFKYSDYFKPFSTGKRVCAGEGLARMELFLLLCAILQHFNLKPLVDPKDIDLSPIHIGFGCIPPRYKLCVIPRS
Attribute measured: pKi
Conceptually, pKi converts a concentration in mol/L into minus its log10.

Query string: # returns recorded pKi (system: CYP2E1 (Homo sapiens)) for O=C1c2c(O)cc(O)cc2O[C@H](c2cc(O)c(O)c(O)c2)[C@H]1O [DHM, Dihydromyricetin]
Result string: 5.03
